Entries annotated with measured pIC50
Molecular target: PI3Kδ (Homo sapiens)
Sequence (O00329 whole entry): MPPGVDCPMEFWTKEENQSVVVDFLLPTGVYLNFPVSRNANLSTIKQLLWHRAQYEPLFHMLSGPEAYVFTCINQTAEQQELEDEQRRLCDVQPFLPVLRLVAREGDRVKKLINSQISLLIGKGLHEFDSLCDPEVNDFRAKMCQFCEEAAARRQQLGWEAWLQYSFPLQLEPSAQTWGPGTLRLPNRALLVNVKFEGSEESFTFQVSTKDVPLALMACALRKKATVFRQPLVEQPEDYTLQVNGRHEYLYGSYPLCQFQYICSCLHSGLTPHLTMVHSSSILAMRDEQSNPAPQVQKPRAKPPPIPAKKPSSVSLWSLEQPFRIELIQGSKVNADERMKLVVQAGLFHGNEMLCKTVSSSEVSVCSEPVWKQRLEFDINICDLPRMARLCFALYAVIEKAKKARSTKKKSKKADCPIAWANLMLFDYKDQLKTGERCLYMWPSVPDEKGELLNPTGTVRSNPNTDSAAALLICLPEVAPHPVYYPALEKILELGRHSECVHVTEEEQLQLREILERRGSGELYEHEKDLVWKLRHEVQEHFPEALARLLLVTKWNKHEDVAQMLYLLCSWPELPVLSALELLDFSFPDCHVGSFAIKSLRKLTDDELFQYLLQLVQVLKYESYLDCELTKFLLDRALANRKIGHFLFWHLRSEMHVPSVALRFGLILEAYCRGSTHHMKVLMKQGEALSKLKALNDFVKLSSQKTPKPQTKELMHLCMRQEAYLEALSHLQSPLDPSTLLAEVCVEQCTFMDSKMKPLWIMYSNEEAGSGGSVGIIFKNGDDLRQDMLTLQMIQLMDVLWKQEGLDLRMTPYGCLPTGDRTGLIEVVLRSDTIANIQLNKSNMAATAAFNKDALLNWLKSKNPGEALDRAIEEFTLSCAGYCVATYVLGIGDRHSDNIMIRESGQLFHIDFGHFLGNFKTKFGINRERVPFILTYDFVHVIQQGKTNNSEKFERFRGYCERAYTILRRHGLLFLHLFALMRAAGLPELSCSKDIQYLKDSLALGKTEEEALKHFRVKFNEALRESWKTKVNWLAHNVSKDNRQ
Sequence (P27986 whole entry partner): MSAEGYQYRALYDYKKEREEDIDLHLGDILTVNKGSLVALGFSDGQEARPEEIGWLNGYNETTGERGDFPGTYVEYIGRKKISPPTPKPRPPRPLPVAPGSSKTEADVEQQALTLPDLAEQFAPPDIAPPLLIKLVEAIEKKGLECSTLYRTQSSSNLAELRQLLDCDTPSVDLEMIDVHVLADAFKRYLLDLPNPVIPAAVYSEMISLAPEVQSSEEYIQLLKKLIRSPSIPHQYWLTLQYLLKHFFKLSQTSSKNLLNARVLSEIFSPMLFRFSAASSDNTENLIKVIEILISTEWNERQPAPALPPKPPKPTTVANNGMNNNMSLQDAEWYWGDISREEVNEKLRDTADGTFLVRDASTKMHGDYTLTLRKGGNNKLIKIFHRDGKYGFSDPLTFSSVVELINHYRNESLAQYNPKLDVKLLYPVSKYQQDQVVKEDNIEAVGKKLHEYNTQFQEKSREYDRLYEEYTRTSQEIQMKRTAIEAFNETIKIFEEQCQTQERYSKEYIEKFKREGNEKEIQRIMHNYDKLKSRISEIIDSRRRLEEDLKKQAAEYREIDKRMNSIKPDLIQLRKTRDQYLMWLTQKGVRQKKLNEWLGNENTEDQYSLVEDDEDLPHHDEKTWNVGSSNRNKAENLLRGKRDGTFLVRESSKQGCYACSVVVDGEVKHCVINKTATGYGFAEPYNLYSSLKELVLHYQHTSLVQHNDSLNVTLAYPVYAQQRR
Assay: In vitro determination of the PI3K enzyme inhibitory activity in the cell free assay (ADP-Glo Kinase Assay), PI3Kδ
Settings: ATP 80 μM, read-out: PI3K delta inhibition
Method: In vitro Determination of the PI3K Enzyme Inhibitory Activity in the Cell Free Assay Human recombinant proteins PI3Kα, PI3Kβ, PI3Kγ and PI3Kδ were purchased from Millipore Ltd (Billerica, Mass.). Compounds were dissolved at 0.5 mM in DMSO and were tested at different concentrations for their activity against PI3Ks using the ADP-Glo™ Kinase Assay (Promega, Madison Wis.) according to the manufacturer's instructions. […]
pIC50: −log10 of the molar value.

// CC(c1cc2ccccn2c1C1=CCNCC1)n1nc(-c2cc(O)cc(F)c2)c2c(N)ncnc21 (centres unmarked) [Example 101] : pIC50 value = 6.00 to 8.00

// CC(c1cc2ccccn2c1-c1ccc(=O)n(CCN2CCCC2)n1)n1nc(-c2cc(O)cc(F)c2)c2c(N)ncnc21 (centres unmarked) [Example 134] : pIC50 value = > 8.00

// CC(Nc1ncnc(N)c1C#N)c1cc2ccccn2c1-c1ccncc1 (centres unmarked) [Example 36] : pIC50 value = 6.00 to 8.00

More entries:
// CC(c1cc2ccccn2c1-c1ccccn1)n1nc(-c2cc(O)cc(F)c2)c2c(N)ncnc21 (racemic) [Example 79] : pIC50 value = > 8.00

// CC(c1cc2ccccn2c1-c1ccc(CN2CCCC2)cn1)n1nc(-c2cc(O)cc(F)c2)c2c(N)ncnc21 (centres unmarked) [Example 113] : pIC50 value = > 8.00

###

Entries annotated with measured IC50
Biological target: PI3Kδ (Homo sapiens)
Experiment: In vitro determination of the PI3K enzyme inhibitory activity in the cell free assay (ADP-Glo Kinase Assay), PI3Kδ
Conditions: ATP 80 μM, read-out: PI3K delta inhibition
Description: In vitro Determination of the PI3K Enzyme Inhibitory Activity in the Cell Free Assay Human recombinant proteins PI3Kα, PI3Kβ, PI3Kγ and PI3Kδ were purchased from Millipore Ltd (Billerica, Mass.). Compounds were dissolved at 0.5 mM in DMSO and were tested at different concentrations for their activity against PI3Ks using the ADP-Glo™ Kinase Assay (Promega, Madison Wis.) according to the manufacturer's instructions. […]

// CC(c1cc2ccccn2c1-c1ccc(=O)n(CCN2CCOCC2)n1)n1nc(-c2cc(O)cc(F)c2)c2c(N)ncnc21 (stereo not drawn) [Example 136] : IC50 value = 10 to 1000 nM

// CC(Nc1ncnc(N)c1C#CCO)c1cc2ccccn2c1-c1ccccn1 (stereo not drawn) [Example 59] : IC50 value = 10 to 1000 nM

// c1ccc(-c2c(CNc3ncnc4[nH]cnc34)cn3ccccc23)cc1 [Example 17] : IC50 value = > 1000 nM

// CC(c1cc2ccccn2c1-c1ccccc1C#N)n1nc(-c2cc(O)cc(F)c2)c2c(N)ncnc21 (stereo not drawn) [Example 123] : IC50 value = < 10 nM

// CC(c1cc2ccccn2c1-c1ccccn1)n1nc(-c2cccc(S(N)(=O)=O)c2)c2c(N)ncnc21 (stereo not drawn) [Example 73] : IC50 value = 10 to 1000 nM

// c1ccc(-c2c(CNc3ncnc4[nH]cnc34)cc3ccccn23)nc1 [Example 14] : IC50 value = > 1000 nM

###

Entries annotated with measured IC50
Target: PI3Kγ (Homo sapiens, UniProt P48736)
Sequence (P48736 whole entry): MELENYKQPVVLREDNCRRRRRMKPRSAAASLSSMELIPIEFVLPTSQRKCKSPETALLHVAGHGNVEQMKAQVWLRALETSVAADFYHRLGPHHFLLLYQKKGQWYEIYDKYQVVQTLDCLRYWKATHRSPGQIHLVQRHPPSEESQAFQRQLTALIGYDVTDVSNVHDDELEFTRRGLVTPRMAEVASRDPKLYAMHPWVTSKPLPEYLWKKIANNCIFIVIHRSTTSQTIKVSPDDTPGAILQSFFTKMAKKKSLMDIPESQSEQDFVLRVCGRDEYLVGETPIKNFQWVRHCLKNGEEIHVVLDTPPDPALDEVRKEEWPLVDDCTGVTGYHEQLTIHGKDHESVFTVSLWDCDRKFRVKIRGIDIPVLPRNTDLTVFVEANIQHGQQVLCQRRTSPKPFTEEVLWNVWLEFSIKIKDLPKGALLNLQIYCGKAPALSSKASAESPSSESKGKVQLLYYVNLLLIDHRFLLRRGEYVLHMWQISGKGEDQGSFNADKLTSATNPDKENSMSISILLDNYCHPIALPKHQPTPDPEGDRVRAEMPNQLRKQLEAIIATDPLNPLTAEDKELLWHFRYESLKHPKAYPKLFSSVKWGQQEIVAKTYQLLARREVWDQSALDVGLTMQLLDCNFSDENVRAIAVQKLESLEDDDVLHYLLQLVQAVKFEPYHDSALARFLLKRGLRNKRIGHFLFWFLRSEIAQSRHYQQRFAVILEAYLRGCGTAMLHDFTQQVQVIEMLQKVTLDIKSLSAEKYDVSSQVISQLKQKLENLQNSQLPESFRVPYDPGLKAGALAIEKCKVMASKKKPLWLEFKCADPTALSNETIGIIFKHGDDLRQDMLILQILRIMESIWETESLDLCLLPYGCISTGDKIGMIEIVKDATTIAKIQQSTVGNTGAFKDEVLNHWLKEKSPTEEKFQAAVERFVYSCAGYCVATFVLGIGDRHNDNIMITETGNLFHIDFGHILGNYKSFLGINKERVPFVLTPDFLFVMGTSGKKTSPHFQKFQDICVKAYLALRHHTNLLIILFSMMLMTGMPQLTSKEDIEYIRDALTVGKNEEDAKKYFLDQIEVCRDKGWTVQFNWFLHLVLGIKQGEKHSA
Experiment: In vitro determination of the PI3K enzyme inhibitory activity in the cell free assay (ADP-Glo Kinase Assay), PI3Kγ
Conditions: ATP 30 μM, read-out: PI3K gamma inhibition

Study these solved cases before continuing.
Hey, PI3Kγ (Homo sapiens, UniProt P48736) data for CC(c1cc2ccccn2c1-c1cccc(CN2CCOCC2)n1)n1nc(-c2cc(O)cc(F)c2)c2c(N)ncnc21 (centres unmarked) : IC50 came out at > 1 µM

Hey, PI3Kγ (Homo sapiens, UniProt P48736) data for Cc1cccc2cc(C(C)Nc3ncnc(N)c3C#N)c(-c3ccccn3)n12 (centres unmarked) : IC50 came out at > 1 µM

Hey, PI3Kγ (Homo sapiens, UniProt P48736) data for CC(c1c(C#N)c2ccccn2c1-c1ccccn1)n1nc(-c2cc(O)cc(F)c2)c2c(N)ncnc21 (centres unmarked) : IC50 came out at 0.01 to 1 µM

Hey, PI3Kγ (Homo sapiens, UniProt P48736) data for C[C@H](c1cc2ccccn2c1-c1ccc(CN2CCOCC2)cn1)n1nc(-c2cc(O)cc(F)c2)c2c(N)ncnc21 (single isomer, unassigned) [Example 108a] : IC50 came out at > 1 µM

Hey, PI3Kγ (Homo sapiens, UniProt P48736) data for C[C@H](c1cc2ccccn2c1-c1ccc(CN(CCO)CCO)cn1)n1nc(-c2cc(O)cc(F)c2)c2c(N)ncnc21 (single isomer, unassigned) [Example 117b] : IC50 came out at > 1 µM

Hey, PI3Kγ (Homo sapiens, UniProt P48736) data for CC(c1cc2ccc(C(F)(F)F)cn2c1-c1ccccn1)n1nc(-c2cc(O)cc(F)c2)c2c(N)ncnc21 (centres unmarked) : IC50 came out at > 1 µM

More entries:
Hey, PI3Kγ (Homo sapiens, UniProt P48736) data for CC(c1cc2ccccn2c1-c1ccn(CCN(CCO)CCO)n1)n1nc(-c2cc(O)cc(F)c2)c2c(N)ncnc21 (centres unmarked) : IC50 came out at 0.01 to 1 µM

Hey, PI3Kγ (Homo sapiens, UniProt P48736) data for CC(c1cc2ccccn2c1-c1ccc(=O)n(CCN2CCCC2)n1)n1nc(-c2cc(O)cc(F)c2)c2c(N)ncnc21 (centres unmarked) : IC50 came out at > 1 µM

###

Molecular target: PI3Kγ (Homo sapiens, UniProt P48736)
Assay: In vitro determination of the PI3K enzyme inhibitory activity in the cell free assay (ADP-Glo Kinase Assay), PI3Kγ
Conditions: ATP 30 μM, read-out: PI3K gamma inhibition
pIC50: −log10 of the molar value.
propertyMeasured: pIC50

// CC(Nc1ncnc(N)c1CO)c1cc2ccccn2c1-c1ccccn1 (centres unmarked) : pIC50 value = < 6.00

// CC(c1cc2ccccn2c1-c1ccc(OCCN(C)C)nn1)n1nc(-c2cc(O)cc(F)c2)c2c(N)ncnc21 (centres unmarked) : pIC50 value = 6.00 to 8.00

// `Cc1ccccc1-c1c(Cn2cnc3c(N)ncnc32)cn2ccccc12` : pIC50 value = < 6.00

// CC(c1cc2ccccn2c1-c1ccccn1)n1nc(-c2cc(O)cc(F)c2)c2c(N)ncnc21 (racemic) : pIC50 value = 6.00 to 8.00

// COc1cc(F)cc(-c2nn(C(C)c3cc4ccccn4c3-c3ccccn3)c3ncnc(N)c23)c1 (centres unmarked) : pIC50 value = < 6.00

// C[C@H](c1cc2ccccn2c1-c1ccc(CN2CCOCC2)cn1)n1nc(-c2cc(O)cc(F)c2)c2c(N)ncnc21 (single isomer, unassigned) [Example 108b] : pIC50 value = < 6.00

// CCC(Nc1ncnc(N)c1C#N)c1cc2ccccn2c1-c1ccccn1 (centres unmarked) : pIC50 value = 6.00 to 8.00

###

Molecular target: PI3Kα (Homo sapiens, UniProt P42336)
Sequence (P42336 whole entry, one chain of several): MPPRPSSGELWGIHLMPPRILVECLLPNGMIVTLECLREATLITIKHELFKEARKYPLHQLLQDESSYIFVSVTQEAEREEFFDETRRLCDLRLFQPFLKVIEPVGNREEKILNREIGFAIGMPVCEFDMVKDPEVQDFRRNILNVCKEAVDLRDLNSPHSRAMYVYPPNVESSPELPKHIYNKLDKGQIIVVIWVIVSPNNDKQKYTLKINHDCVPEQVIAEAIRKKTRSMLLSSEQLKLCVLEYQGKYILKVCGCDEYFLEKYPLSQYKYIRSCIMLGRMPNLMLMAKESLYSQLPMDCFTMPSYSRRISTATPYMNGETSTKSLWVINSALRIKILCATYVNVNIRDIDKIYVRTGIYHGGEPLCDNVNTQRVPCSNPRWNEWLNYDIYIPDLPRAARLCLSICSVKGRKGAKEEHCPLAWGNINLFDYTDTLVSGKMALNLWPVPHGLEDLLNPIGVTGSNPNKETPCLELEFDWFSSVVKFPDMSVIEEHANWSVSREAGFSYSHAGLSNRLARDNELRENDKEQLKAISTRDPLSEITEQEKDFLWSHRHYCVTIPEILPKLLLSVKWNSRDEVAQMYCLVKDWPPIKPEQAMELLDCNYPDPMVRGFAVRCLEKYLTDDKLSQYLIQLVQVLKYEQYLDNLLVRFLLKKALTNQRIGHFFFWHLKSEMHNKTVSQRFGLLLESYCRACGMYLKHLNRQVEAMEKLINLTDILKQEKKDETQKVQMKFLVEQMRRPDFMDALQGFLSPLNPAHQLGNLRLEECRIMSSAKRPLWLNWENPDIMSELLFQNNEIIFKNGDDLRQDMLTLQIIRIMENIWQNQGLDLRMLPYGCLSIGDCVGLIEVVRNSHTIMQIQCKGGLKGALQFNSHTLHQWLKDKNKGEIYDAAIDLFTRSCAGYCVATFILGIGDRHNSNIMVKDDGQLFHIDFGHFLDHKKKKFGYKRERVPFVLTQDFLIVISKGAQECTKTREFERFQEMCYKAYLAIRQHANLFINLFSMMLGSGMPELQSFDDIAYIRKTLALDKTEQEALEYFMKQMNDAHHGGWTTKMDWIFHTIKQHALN
Test: In vitro determination of the PI3K enzyme inhibitory activity in the cell free assay (ADP-Glo Kinase Assay), PI3Kα
Conditions: ATP 50 μM, read-out: PI3K alpha inhibition
pIC50: −log10 of the molar value.
propertyMeasured: pIC50

Study these solved cases before continuing.
// CC(c1c(C#N)c2ccccn2c1-c1ccccn1)n1nc(-c2cc(O)cc(F)c2)c2c(N)ncnc21 (stereo not drawn) [Example 126] : pIC50 value = 6.00 to 8.00

// CC(Nc1ncnc(N)c1C#N)c1cc2c(F)cccn2c1-c1ccccn1 (stereo not drawn) [Example 39] : pIC50 value = < 6.00

// CC(c1cc2ccccn2c1-c1ccc(=O)n(CCN2CCN(C)CC2)n1)n1nc(-c2cc(O)cc(F)c2)c2c(N)ncnc21 (stereo not drawn) [Example 135] : pIC50 value = < 6.00

// N#Cc1c(N)ncnc1NCc1cc2ccccn2c1-c1ccccn1 [Example 23] : pIC50 value = < 6.00

More entries:
// Fc1cccc(-c2c(CNc3ncnc4[nH]cnc34)cn3ccccc23)c1 [Example 18] : pIC50 value = < 6.00

// Nc1ncnc2c1c(-c1cc(O)cc(F)c1)nn2Cc1cc2ccccn2c1-c1ccccn1 [Example 97] : pIC50 value = 6.00 to 8.00

###

Target: PI3Kγ (Homo sapiens, UniProt P48736)
Assay: In vitro determination of the PI3K enzyme inhibitory activity in the cell free assay (ADP-Glo Kinase Assay), PI3Kγ
Conditions: ATP 30 μM, read-out: PI3K gamma inhibition
Entries annotated with measured IC50

Study these solved cases before continuing.
// CC(Nc1ncnc(N)c1C=O)c1cc2ccccn2c1-c1ccccn1 (stereo not drawn) [Example 47] : IC50 value = > 1 µM

// CC(Nc1ncnc(N)c1CN1CCOCC1)c1cc2ccccn2c1-c1ccccn1 (stereo not drawn) [Example 57] : IC50 value = > 1 µM

More entries:
// CNC(=O)c1c(N)ncnc1NC(C)c1cc2ccccn2c1-c1ccccn1 (stereo not drawn) [Example 51] : IC50 value = > 1 µM
